Reference source for all entries: patent US8686187B2

The molecules listed here are annotated with their pIC50.
Test system: Human umbilical vein endothelial cell (HUVEC)
assay-info: Proliferation inhibition of human umbilical vein endothelial cells (SRB)
Assay type: cell-based
condition-parameters: 48 hours, SRB, read-out: IC50
Please treat pIC50 as minus the base-10 logarithm of the molar concentration.

Here are 4 molecules together with their reported answers.
                          chemical_smiles  numeric_readout
0  COc1ccc(/C=C\c2cc(OC)c(OC)c(OC)c2)cc1O             8.32
1     COc1ccc(CCc2cc(OC)c(OC)c(OC)c2)cc1O             8.25
2     COc1ccc(CCc2cc(OC)c(OC)c(OC)c2)cc1N             8.11
3    CCOc1ccc(CCc2cc(OC)c(OC)c(OC)c2)cc1O             9.12

# ---- query molecule ----
In: Reported pIC50 for CCOc1ccc(CCc2cc(OC)c(OC)c(OC)c2)cc1N : what is it?
Out: 9.17
